This collection of values is drawn from patent US20200131159A1.

target: human mAChR M1 (Homo sapiens, UniProt P11229); construct: hM1 and hM4 cDNAs were purchased from Missouri S&T cDNA Resource; host or cells: CHO-K1 cells, stably transfected with Lipofectamine2000; test: mAChR M1 cell-based functional assay (calcium mobilization, PAM mode, EC20 acetylcholine); settings: CHO-K1 cells expressing hM1; EC20 acetylcholine response; calcium flux (Fluo-4)
Sequence (P11229 whole entry): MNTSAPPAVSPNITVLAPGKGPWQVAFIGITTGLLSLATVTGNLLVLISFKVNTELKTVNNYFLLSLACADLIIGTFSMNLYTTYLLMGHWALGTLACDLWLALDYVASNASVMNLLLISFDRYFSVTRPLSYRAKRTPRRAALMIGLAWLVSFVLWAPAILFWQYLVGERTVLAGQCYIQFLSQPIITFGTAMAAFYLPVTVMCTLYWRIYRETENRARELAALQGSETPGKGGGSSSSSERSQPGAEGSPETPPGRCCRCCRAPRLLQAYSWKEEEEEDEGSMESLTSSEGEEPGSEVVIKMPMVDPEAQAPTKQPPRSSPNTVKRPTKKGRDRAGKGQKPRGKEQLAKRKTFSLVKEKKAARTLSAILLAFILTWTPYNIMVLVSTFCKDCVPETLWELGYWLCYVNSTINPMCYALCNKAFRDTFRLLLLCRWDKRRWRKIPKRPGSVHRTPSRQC
Each item that follows carries a reported Emax.
Enter your answer as a number in %; do not include the unit.

INSERT INTO results (compound, value_type, measured_number) VALUES
  ('Cc1c(Cc2ccc(-c3ccn(C)n3)nc2)cc(C(=O)N[C@H]2CCOC[C@@H]2O)c2ncccc12 [compound 29]', 'Emax', 72),
  ('Cc1nc(-c2ccc(Cc3cc(C(=O)NC4CCOCC4)c4ncccc4c3C)cc2)co1 [compound 35]', 'Emax', 38);

Answer with the recorded Emax of Cc1c(Cc2ccc(-n3cccn3)cc2)cc(C(=O)N[C@H]2CCCC[C@@H]2O)c2ncccc12 [compound 25] only. 81
